Where do these numbers come from? They come from ChEMBL document CHEMBL1132427.

molecular target: NAD(P)H dehydrogenase [quinone] 1 (Homo sapiens); experiment: Substrate specificity towards human NAD(P)H quinone reductase
Use Condition met when the recorded Substrate specificity is no lower than 3 µM/min/mg; use Condition not met when it is lower.

Does the compound Cc1c(O)c2c(n1C)C(=O)C=C(N1C(C)C1C)C2=O (stereo not drawn) have recorded Substrate specificity that is 3 µM/min/mg or more?
Condition met

Please tell me: is the compound Cn1cc(CO)c2c1C(=O)C=C(N1CC1)C2=O at or over 3 µM/min/mg in terms of Substrate specificity?
Condition met

Assess whether reported Substrate specificity for CC1CN1C1=CC(=O)c2c(cc(C(=O)NCCN3CCOCC3)n2C)C1=O (stereo not drawn) sits at 3 µM/min/mg or higher.
Condition met

// inclusive: Substrate specificity at least 3 µM/min/mg? input: COC1=CC(=O)c2c(c(CC(=O)c3ccc(F)cc3)c(-c3ccccc3)n2C)C1=O
Condition not met

Please tell me: is the compound COC1=CC(=O)c2c(c(CO)c(-c3ccccc3)n2C)C1=O at or over 3 µM/min/mg in terms of Substrate specificity?
Condition met

Entry Cc1c(CO)c2c(n1C)C(=O)C=C(N1CC1C)C2=O (stereo not drawn) : is its Substrate specificity no less than 3 µM/min/mg?
Condition met

Quick check: does COC1=CC(=O)c2c(c(COC(=O)c3ccc(F)cc3)cn2C)C1=O have Substrate specificity greater than or equal to 3 µM/min/mg?
Condition not met
